Field: logP. Provide a value for each of the compounds that follow.
Give the figure by itself; no unit, no explanation.

response.value for CC(C)OC(=O)[C@H](C)N(C(=O)c1ccccc1)c1ccc(F)c(Cl)c1 (racemic) (field: logP) = 4.41

response.value for COP(=S)(OC)Oc1ccc(S(=O)(=O)N(C)C)cc1 (field: logP) = 2.28

response.value for COc1c(Cl)ccc(Cl)c1C(=O)O (field: logP) = 3.01

response.value for Clc1ccc(-c2cc(Cl)ccc2Cl)cc1 (field: logP) = 5.56

response.value for ClC=C(c1ccc(Cl)cc1)c1ccc(Cl)cc1 (field: logP) = 5.27

response.value for COC(=O)C(C)N(C(=O)c1ccccc1)c1ccc(F)c(Cl)c1 (racemic) (field: logP) = 3.48
